The reported measurements were obtained from ChEMBL document CHEMBL5113527.

- EXPERIMENTAL_PROTOCOL: Ratio of drug concentration in brain to plasma of CD-1 mouse measured after 2 hrs by LC-MS/MS analysis
- Format: ADME
- MEASUREMENT_CONTEXT: read-out: BPR
OBSERVATION_TYPE: Kp at 2 h
Write the number on its own, no unit after it.

QUERY: Need Kp at 2 h of CCNNC(=O)c1ccc(CN2c3ccccc3C=Cc3ccncc32)cc1 , thanks.
RESULT: 1.42

----------
- EXPERIMENTAL_PROTOCOL: Cmax in CD-1 mouse at 5 mg/kg, iv measured after 0.083 to 24 hrs by LC-MS/MS analysis
- Type: ADME, organism-based
- Set-up: dose 5 mg/kg, time 0.083-24 hrs, route iv
- MEASUREMENT_CONTEXT: in vivo
In this section, each of the compounds is paired with its reported Cmax.
Give the value, in units of ng/mL, as a plain number.

CHEMICAL_STRING: O=C(CCCCCCNC(=O)c1cnc(N(c2ccccc2)c2ccccc2)nc1)NO
Cmax / ng/mL: 372

Next, consider the following compound.
QUERY: Give the measured Cmax of CCNNC(=O)c1ccc(CN2c3ccccc3C=Cc3ccncc32)cc1 .
RESULT: 4600

----------
- EXPERIMENTAL_PROTOCOL: Brain concentration in CD-1 mouse at 20 mg/kg measured after 4 hrs by LC-MS/MS analysis
- Assay type: ADME, organism-based
- MEASUREMENT_CONTEXT: read-out: Ct
OBSERVATION_TYPE: concentration at 4 h (ng/mL)
Kindly provide the numeric value in ng/mL only, without the unit symbol.

QUERY: What concentration at 4 h value was documented for this molecule, CCNNC(=O)c1ccc(CN2c3ccccc3C=Cc3ccncc32)cc1 ?
RESULT: 245

----------
Form field: IC50 (one value per entry).
- MEASUREMENT_TARGET: Histone deacetylase 2 (Homo sapiens)
- Sequence (Q92769 whole entry): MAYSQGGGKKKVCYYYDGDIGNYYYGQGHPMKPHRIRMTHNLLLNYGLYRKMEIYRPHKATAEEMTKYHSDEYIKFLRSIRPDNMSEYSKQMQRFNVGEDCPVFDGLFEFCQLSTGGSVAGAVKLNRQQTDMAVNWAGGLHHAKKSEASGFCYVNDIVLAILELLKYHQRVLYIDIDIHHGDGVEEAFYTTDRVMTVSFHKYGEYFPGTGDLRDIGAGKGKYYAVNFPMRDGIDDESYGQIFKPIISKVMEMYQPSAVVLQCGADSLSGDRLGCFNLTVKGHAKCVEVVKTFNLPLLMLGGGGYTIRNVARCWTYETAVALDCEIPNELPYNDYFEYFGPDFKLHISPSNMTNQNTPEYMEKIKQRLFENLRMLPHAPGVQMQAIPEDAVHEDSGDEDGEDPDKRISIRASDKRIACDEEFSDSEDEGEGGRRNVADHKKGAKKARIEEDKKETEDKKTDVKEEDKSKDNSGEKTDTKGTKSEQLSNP
- EXPERIMENTAL_PROTOCOL: Inhibition of recombinant HDAC2 (unknown origin) using Boc-Lys(acetyl)-AMC as substrate preincubated for 1 hr followed by substrate addition and measured after 2 hrs by fluorescence based microplate reader analysis
Form entry: value (µM) — number only.

Please review the entries below; each comes with its answer.
CHEMICAL_STRING: CCNNC(=O)c1ccc(CN2c3ccccc3C=Cc3ccc(C)cc32)cc1
MEASUREMENT_TARGET: Histone deacetylase 2 (Homo sapiens)
IC50 (µM): 4.39
//
CHEMICAL_STRING: CCNNC(=O)c1ccc(Cn2c3ccccc3c3ccncc32)cc1
MEASUREMENT_TARGET: Histone deacetylase 2 (Homo sapiens)
IC50 (µM): 4.38

QUERY: # query: IC50 of entry CCNNC(=O)c1ccc(CNC(=O)Nc2cccc3cccnc23)cc1
RESULT: 0.006

QUERY: Would you kindly share the measured IC50 for CCCCN(Cc1ccc(C(=O)NNCC)cc1)C(=O)Nc1ccccc1 ?
RESULT: 0.078

QUERY: Which IC50 value is on record for CCNNC(=O)c1ccc(CN2c3ccccc3C=Cc3ccncc32)cc1 ?
RESULT: 2.06

QUERY: I have this molecule here, CCNNC(=O)c1ccc(Cn2ccc3cc(C(=O)c4ccc(OC)cc4)ccc32)cc1 , and I need its recorded IC50.
RESULT: 0.913

----------
- EXPERIMENTAL_PROTOCOL: Cmax in CD-1 mouse at 3 mg/kg, iv measured after 0.083 to 24 hrs by LC-MS/MS analysis
- Format: ADME, organism-based
- Parameters: time upper 24 hrs, time lower 0.083 hrs, dose 3 mg/kg, route iv
- MEASUREMENT_CONTEXT: in vivo
OBSERVATION_TYPE: Cmax (ng/mL)
# number only, unit ng/mL dropped from output

QUERY: Bench note: what Cmax did CN1CCc2c(c3ccccc3n2Cc2ccc(C(=O)NO)cc2)C1 show?
RESULT: 1240

----------
- MEASUREMENT_TARGET: Histone deacetylase 8 (Homo sapiens, UniProt Q9BY41)
- Sequence (Q9BY41 whole entry): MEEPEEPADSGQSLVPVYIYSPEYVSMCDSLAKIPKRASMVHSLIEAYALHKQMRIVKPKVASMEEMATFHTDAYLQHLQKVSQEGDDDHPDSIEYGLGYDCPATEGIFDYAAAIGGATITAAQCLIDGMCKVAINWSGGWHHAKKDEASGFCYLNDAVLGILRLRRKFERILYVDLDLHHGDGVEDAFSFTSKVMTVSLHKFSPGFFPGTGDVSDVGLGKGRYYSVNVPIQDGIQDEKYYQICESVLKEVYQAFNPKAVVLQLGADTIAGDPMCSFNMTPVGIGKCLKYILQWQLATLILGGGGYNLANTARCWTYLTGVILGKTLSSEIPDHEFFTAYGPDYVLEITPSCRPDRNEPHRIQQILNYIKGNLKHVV
- EXPERIMENTAL_PROTOCOL: Inhibition of recombinant HDAC8 (unknown origin) using Boc-Lys (trifluoroacetyl) AMC as substrate preincubated for 1 hr followed by substrate addition and measured after 2 hrs by fluorescence based microplate reader analysis
pIC50: −log10 of the molar value.
OBSERVATION_TYPE: pIC50

QUERY: // map CCNNC(=O)c1ccc(CN2c3ccccc3C=Cc3ccncc32)cc1 to recorded pIC50 (system: Histone deacetylase 8 (Homo sapiens, UniProt Q9BY41))
RESULT: < 5.30

----------
- EXPERIMENTAL_PROTOCOL: Plasma concentration in CD-1 mouse at 20 mg/kg measured after 2 hrs by LC-MS/MS analysis
- Type: ADME, organism-based
OBSERVATION_TYPE: concentration at 2 h

QUERY: concentration at 2 h for CCNNC(=O)c1ccc(CN2c3ccccc3C=Cc3ccncc32)cc1 ?
RESULT: 2320 ng/mL

----------
- EXPERIMENTAL_PROTOCOL: Oral bioavailability in CD-1 mouse at 20 mg/kg measured after 0.083 to 24 hrs by LC-MS/MS analysis
- Format: ADME, organism-based
- MEASUREMENT_CONTEXT: in vivo, time 0.083-24 hrs
OBSERVATION_TYPE: bioavailability (%)
# output: bare number, implied unit %

QUERY: Form field: reported bioavailability of CCNNC(=O)c1ccc(CN2c3ccccc3C=Cc3ccncc32)cc1
RESULT: 93.4

----------
- MEASUREMENT_TARGET: UniProt Q13547
- Sequence (Q13547 whole entry): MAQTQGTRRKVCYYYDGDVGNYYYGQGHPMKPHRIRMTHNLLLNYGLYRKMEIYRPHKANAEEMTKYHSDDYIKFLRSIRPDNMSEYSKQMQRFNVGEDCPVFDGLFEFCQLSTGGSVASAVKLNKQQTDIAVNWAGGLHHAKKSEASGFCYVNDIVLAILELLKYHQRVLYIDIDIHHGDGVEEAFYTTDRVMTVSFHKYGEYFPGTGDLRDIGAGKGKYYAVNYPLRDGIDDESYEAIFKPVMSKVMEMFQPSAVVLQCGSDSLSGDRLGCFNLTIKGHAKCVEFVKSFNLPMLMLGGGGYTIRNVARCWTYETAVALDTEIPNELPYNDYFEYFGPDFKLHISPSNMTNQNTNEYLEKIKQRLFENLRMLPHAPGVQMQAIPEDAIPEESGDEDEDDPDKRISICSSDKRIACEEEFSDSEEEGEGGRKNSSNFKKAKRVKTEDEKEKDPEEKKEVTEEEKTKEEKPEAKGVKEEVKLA
- EXPERIMENTAL_PROTOCOL: Inhibition of recombinant HDAC1 (unknown origin) using Boc-Lys(acetyl)-AMC as substrate preincubated for 1 hr followed by substrate addition and measured after 2 hrs by fluorescence based microplate reader analysis
Labelling field: enter TRUE if recorded IC50 is less than 2000 nM. Enter FALSE if it equals or exceeds that cut-off.

Solved cases below.
CHEMICAL_STRING: CCNNC(=O)c1ccc(CN2c3ccccc3Sc3cccnc32)cc1
MEASUREMENT_TARGET: UniProt Q13547
QUALITATIVE_LABEL: FALSE
--
CHEMICAL_STRING: CCNNC(=O)c1ccc(CN2c3ccccc3Cc3ccccc32)cc1
MEASUREMENT_TARGET: UniProt Q13547
QUALITATIVE_LABEL: FALSE

QUERY: Given CCNNC(=O)c1ccc(CN2c3ccccc3CCc3ccccc32)cc1 , is recorded IC50 strictly lower than 2000 nM?
RESULT: FALSE

QUERY: # strict comparison: is reported IC50 < 2000 nM? input = CCNNC(=O)c1ccc(CN2c3ccccc3Oc3ccccc32)cc1
RESULT: FALSE

QUERY: Does the reported IC50 of the following compound sit strictly below 2000 nM? CNNC(=O)c1ccc(CNC(=O)c2ccccc2)cc1
RESULT: FALSE

QUERY: Here's an entry: CCNNC(=O)c1ccc(NC(=O)Nc2cccc3cccnc23)cc1 . Is its IC50 below 2000 nM?
RESULT: TRUE

QUERY: Please check: IC50 for CCNNC(=O)c1ccc(CN2c3ccccc3C=Cc3ccccc32)cc1 , strictly under 2000 nM or not?
RESULT: FALSE

QUERY: Please let me know if CCNNC(=O)c1ccc(Cn2c3ccccc3c3ccncc32)cc1 shows IC50 below 2000 nM.
RESULT: FALSE

QUERY: Quick check: IC50 of CCNNC(=O)c1ccc(CN2c3ccccc3C=Cc3ccc(C(F)(F)F)cc32)cc1 under 2000 nM?
RESULT: FALSE

QUERY: Field: below-cutoff. Rule: recorded IC50 strictly less than 2000 nM. Subject: CCNNC(=O)c1ccc(Cn2c3ccccc3c3cccnc32)cc1
RESULT: FALSE

QUERY: Below 2000 nM on IC50? Entry CCNNC(=O)c1ccc(Cn2c3ccccc3c3ccccc32)cc1
RESULT: FALSE

QUERY: Does CCNNC(=O)c1ccc(CN2c3ccccc3C=Cc3nc(C)nc(C)c32)cc1 have IC50 strictly under 2000 nM?
RESULT: FALSE

QUERY: Answer whether the compound CCNNC(=O)c1csc(-c2cccnc2)n1 has IC50 strictly less than 2000 nM
RESULT: FALSE

----------
- EXPERIMENTAL_PROTOCOL: AUC(0 to infinity) in CD-1 mouse at 5 mg/kg, iv measured after 0.083 to 24 hrs by LC-MS/MS analysis
- Type: ADME, organism-based
- Parameters: dose 5 mg/kg, time upper 24 hrs, time lower 0.083 hrs, route iv
- MEASUREMENT_CONTEXT: in vivo
OBSERVATION_TYPE: AUC(0-inf) (ng·h/mL)
Just the number please, in ng·h/mL, no unit attached.

CHEMICAL_STRING: CCNNC(=O)c1ccc(CN2c3ccccc3C=Cc3ccncc32)cc1
AUC(0-inf) (ng·h/mL): 2760

Next item in the queue.
QUERY: Please look up its AUC(0-inf): O=C(CCCCCCNC(=O)c1cnc(N(c2ccccc2)c2ccccc2)nc1)NO
RESULT: 342
